sequences and their reported pKd
biological target: β-bungarotoxin (β-BuTx) (Bungarus multicinctus) (UniProt P00618+P00987); experiment: fluorescence anisotropy; settings: 20 mM HEPES pH 7.4, 150 mM NaCl, 5 mM KCl, 2 mM MgCl2, 2 mM CaCl2, room temperature
Sequence (P00618 26-145, chain 1 of 2): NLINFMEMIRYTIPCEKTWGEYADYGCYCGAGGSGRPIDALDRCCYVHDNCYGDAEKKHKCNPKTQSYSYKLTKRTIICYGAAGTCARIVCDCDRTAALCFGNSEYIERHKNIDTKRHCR
Sequence (P00987 25-85, chain 2 of 2): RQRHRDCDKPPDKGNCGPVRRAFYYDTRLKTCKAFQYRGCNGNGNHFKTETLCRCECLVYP
pKd: −log10 of the molar value.
MEASUREMENT KIND: pKd

- BIOSEQUENCE: "AGCAGCACAGAGGTCAGATGGCAATGCACCTTTGTCTCTTATAGTTTATTTTTTGCCTTCCTATGCGTGCTACCGTGAA [βB-32]"
  TARGET OR SYSTEM: "β-bungarotoxin (β-BuTx) (Bungarus multicinctus) (UniProt P00618+P00987)"
  MEASUREMENT KIND: "pKd"
  RESULT VALUE: 6.00
- BIOSEQUENCE: "AGCAGCACAGAGGTCAGATGATTAGTCATGTTTGTTTGTCTGGCTTTTTGGGTTTGTGCAGTATTATGAACCCTATGCGTGCTACCGTGAA [βB-20]"
  TARGET OR SYSTEM: "β-bungarotoxin (β-BuTx) (Bungarus multicinctus) (UniProt P00618+P00987)"
  MEASUREMENT KIND: "pKd"
  RESULT VALUE: 7.08
- BIOSEQUENCE: "AGCAGCACAGAGGTCAGATGGTTTTCCCCTTGTCGCTTTTGGTTCGTTCTGCCTCTATCTCCTATGCGTGCTACCGTGAA [βB-1]"
  TARGET OR SYSTEM: "β-bungarotoxin (β-BuTx) (Bungarus multicinctus) (UniProt P00618+P00987)"
  MEASUREMENT KIND: "pKd"
  RESULT VALUE: 7.18
- BIOSEQUENCE: "AGCAGCACAGAGGTCAGATGTTTGGTGTGGATCCTGAACATTTATATTCTTTCGTTTTTTCCTATGCGTGCTACCGTGAA [βB-19]"
  TARGET OR SYSTEM: "β-bungarotoxin (β-BuTx) (Bungarus multicinctus) (UniProt P00618+P00987)"
  MEASUREMENT KIND: "pKd"
  RESULT VALUE: 6.28
